Here, each record is paired with measured Kd data.
Molecular target: T1, hLRRC33-proTGFβ1 (human, UniProt Q86YC3 19-650; P01137 30-390, limits assumed)
T1 construct: LLC as m1; Same id used for the cell-surface complex in reporter assays; also called human LRRC33-proTGFβ1 complex; LRRC33-ProTGFb1
T1 sequence (Q86YC3 19-650 limits assumed, chain 1 of 2): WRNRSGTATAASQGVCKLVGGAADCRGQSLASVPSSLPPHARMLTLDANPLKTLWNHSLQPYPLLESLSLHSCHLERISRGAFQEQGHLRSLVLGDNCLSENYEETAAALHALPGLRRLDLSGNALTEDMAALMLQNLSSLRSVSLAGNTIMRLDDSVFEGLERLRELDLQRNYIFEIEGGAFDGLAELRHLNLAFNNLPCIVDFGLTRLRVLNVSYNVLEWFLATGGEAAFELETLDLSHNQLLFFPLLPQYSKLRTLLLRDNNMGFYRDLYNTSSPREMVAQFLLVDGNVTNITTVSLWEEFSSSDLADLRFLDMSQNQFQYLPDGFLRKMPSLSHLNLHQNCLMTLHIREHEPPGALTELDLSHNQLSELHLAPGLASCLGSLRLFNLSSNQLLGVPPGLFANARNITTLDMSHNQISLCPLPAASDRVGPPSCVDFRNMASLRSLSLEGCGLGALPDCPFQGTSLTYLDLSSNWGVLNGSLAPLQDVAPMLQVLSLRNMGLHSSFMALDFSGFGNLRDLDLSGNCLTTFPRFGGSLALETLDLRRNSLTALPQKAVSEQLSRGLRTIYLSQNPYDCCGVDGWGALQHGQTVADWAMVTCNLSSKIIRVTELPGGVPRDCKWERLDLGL
T1 sequence (P01137 30-390 limits assumed, chain 2 of 2): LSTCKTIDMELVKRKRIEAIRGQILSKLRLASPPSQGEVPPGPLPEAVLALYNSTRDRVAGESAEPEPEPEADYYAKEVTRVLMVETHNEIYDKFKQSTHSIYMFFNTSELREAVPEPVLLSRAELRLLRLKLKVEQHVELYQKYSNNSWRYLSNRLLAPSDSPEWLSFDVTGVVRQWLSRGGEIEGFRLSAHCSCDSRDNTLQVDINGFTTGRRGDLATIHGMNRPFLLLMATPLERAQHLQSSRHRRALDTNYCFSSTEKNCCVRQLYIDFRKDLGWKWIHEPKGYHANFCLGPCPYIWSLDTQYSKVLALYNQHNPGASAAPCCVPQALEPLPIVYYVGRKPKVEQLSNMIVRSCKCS
Assay: BLI (Octet)

| binder | uom | Kd |
| --- | --- | --- |
| Ab26 (antibody, V domains shown) VH: EVQLVESGGGLVQPGGSLRLSCAASGFTFSSFSMDWVRQAPGKGLEWVSYISPDASTIYYADSVKGRFTISRDNAKNTLYLQMNSLRAEDTAVYYCARGVLDYGDMLDPWGQGTLVTVSS VL: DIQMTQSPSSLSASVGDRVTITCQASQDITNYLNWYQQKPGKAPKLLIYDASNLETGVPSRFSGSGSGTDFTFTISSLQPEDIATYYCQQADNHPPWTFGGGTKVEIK | nM | 0.36 |
| Ab29 (antibody, V domains shown) VH: EVQLVESGGGLVQPGRSLRLSCAASGFTFSSFAMNWVRQAPGKGLEWVSYISPDASTIYYAGSVKGRFTISRDNAKNSLYLQMNSLRAEDTAVYYCVRAVLDYGDMLDPWGQGTLVTVSS VL: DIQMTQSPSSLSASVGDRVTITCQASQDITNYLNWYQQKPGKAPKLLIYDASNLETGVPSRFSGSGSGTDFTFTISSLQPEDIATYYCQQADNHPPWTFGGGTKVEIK | nM | 0.302 |
| Ab33 (antibody, V domains shown) VH: EVQLVESGGGLVQPGGSLRLSCAASGFTFSSFSMNWVRQAPGKGLEWVSYISPSADTIYYADSVKGRFTISRDNAKNTLYLQMNSLRAEDTAVYYCAHGVLDYGDMLDPWGQGTLVTVSS VL: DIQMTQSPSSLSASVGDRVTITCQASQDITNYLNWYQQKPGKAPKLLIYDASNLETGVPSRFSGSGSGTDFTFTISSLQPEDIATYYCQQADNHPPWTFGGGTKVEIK | nM | 0.339 |
| Ab23 (antibody, V domains shown) VH: EVQLVESGGGLVQPGGSLRLSCAASGFTFSSFSMNWVRQAPGKGLEWVSYISPSADTIYYADSVKGRFTISRDNAKNTLYLQMNSLRAEDTAVYYCARGVLDYGDMLDPWGQGTLVTVSS VL: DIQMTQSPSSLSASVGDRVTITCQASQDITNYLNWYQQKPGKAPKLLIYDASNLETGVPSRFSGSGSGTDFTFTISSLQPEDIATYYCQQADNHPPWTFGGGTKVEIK | nM | 0.455 |
| Ab30 (antibody, V domains shown) VH: EVQLVESGGGLVQPGGSLRLSCAASGFTFSSFSMDWVRQAPGKGLEWVSYISPDASTIYYADSVKGRFTISRDNAKNSLYLQMNSLRAEDTAVYYCARGTLDYGDMLDPWGQGTLVTVSS VL: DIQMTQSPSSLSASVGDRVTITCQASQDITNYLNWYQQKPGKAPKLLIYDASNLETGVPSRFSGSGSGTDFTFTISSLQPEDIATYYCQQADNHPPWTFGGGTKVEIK | nM | 0.535 |
